# assay.target: Relipidated TF (UniProt P13726 33-295, limits assumed)
# assay.name: cell-based or functional assay
measured.quantity: % ttPeak, Ab conc. 10 nM

Sample answers from the record:
[[record]]
binder = "39A (antibody, IgG1, V domains shown) VH: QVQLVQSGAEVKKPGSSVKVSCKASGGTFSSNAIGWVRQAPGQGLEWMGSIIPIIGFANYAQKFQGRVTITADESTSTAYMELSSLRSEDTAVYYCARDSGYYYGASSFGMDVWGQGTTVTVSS VL: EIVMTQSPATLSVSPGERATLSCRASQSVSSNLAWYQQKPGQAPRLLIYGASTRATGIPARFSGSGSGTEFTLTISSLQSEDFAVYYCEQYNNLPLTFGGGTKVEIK"
endpoint_result = "135%"

[[record]]
binder = "5G9 (humanized TF8-5G9, CNTO 860) (antibody, V domains shown) VH: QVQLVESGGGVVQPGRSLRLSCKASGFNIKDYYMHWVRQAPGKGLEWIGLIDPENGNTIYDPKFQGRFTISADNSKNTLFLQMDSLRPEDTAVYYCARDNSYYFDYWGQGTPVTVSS VL: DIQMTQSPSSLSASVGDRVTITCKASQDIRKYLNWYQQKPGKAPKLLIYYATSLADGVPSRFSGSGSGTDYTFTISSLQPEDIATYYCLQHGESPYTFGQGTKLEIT"
endpoint_result = "135%"

[[record]]
binder = "43B1 (antibody, IgG1, V domains shown) VH: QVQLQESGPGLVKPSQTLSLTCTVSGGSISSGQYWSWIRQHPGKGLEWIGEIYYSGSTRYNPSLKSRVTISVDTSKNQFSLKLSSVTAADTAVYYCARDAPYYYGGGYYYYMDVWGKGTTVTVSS VL: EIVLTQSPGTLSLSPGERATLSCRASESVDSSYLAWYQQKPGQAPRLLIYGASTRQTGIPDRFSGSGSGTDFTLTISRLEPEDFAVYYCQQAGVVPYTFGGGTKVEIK"
endpoint_result = "9%"


Looking up TF-011 (antibody, V domains shown) VH: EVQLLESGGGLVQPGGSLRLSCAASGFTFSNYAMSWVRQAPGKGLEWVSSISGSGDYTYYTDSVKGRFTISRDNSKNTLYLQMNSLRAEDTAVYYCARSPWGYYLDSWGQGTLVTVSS VL: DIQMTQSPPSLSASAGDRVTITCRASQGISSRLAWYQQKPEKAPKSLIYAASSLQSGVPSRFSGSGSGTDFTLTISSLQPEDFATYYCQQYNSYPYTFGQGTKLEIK , I found its % ttPeak, Ab conc. 10 nM recorded as 86%
